# Test system: HeLa
# assay-summary: Antitumor activity against HeLa cells by MTT assay
# Assay type: functional, cell-based
# assay-conditions: Homo sapiens
recorded-endpoint: pIC50
// field semantics: pIC50 = negative decimal log of concentration (mol/L)

[ask] Which pIC50 is reported for this molecule? "C[C@H](CCC(=O)[C@@H](C)[C@H]1C(=O)C[C@H]2[C@@H]3CC=C4C[C@@H](O[C@@H]5OC[C@H](O)[C@H](O)[C@H]5O)CC[C@]4(C)[C@H]3CC[C@]12C)CO[C@@H]1OC[C@H](O)[C@H](O)[C@H]1O"
[reply] 5.37

The measurements presented in this section are drawn from ChEMBL document CHEMBL1146255.
